# assayRemarks: gradient 5% acetonitrile 3 min, to 50% in 2 min, to 85% in 15 min, held 3 min, 100 µL/min
# experimentalSetup: column: Zorbax Extend-C18 2.1 x 50 mm; eluents: water / acetonitrile, 0.1% formic acid
I'd appreciate it if you could supply RP-LC retention time values for the items below.
Dear colleague, please return just the value in s, with no unit written.

query: So what's the measured RP-LC retention time for this one? `Cc1ccc(NC(=O)Cn2c(C)nc3c(sc4nc(-c5ccccc5)ccc43)c2=O)cc1C`
result: 1120

query: So what's the measured RP-LC retention time for this one? `CC1CCN(S(=O)(=O)c2ccc(-c3nnc(C(=O)NCCCOC(C)C)o3)cc2)CC1`
result: 1030

query: So what's the measured RP-LC retention time for this one? `O=C(Nc1ccc(C(=O)N2CCOCC2)c(N2CCCCCC2)c1)C1CC1`
result: 743

query: So what's the measured RP-LC retention time for this one? O=C(NCc1ccco1)C1c2ccccc2C(=O)N(Cc2ccccc2)C12CCCC2 (stereo not drawn)
result: 943

query: So what's the measured RP-LC retention time for this one? Cc1ccccc1NC(=O)N1CCC2(C1)C(=O)N(C)c1ccccc12 (stereo not drawn)
result: 772

query: So what's the measured RP-LC retention time for this one? `Cc1ccc(C)c2sc(NCc3ccccn3)nc12`
result: 641

query: So what's the measured RP-LC retention time for this one? Nc1ncc2c(n1)CC(c1ccco1)CC2=O (stereo not drawn)
result: 676

query: So what's the measured RP-LC retention time for this one? `O=C(C1=NN(Cc2ccccc2)c2ccccc2S1(=O)=O)N1CCCCC1`
result: 929

query: So what's the measured RP-LC retention time for this one? `CCCn1ccc2sc(C)c(C(=O)NC3CCCC3)c2c1=O`
result: 760

query: So what's the measured RP-LC retention time for this one? `CCOc1ccc2nc(C(=O)NC3CCCCC3)cn2n1`
result: 897

query: So what's the measured RP-LC retention time for this one? CS(=O)(=O)N1CCCCC1c1nncn1Cc1ccccc1 (stereo not drawn)
result: 691

query: So what's the measured RP-LC retention time for this one? `Cn1nc(-c2nnc(-c3ccc(F)cc3)o2)c2c1CCN(S(=O)(=O)Cc1ccccc1)C2`
result: 999

query: So what's the measured RP-LC retention time for this one? `O=C(NCCOc1ccc(-c2ccccn2)nn1)c1cccs1`
result: 586

query: So what's the measured RP-LC retention time for this one? CCOc1ccc(C(=O)N2CCCCC2c2nncn2C)cc1OCC (stereo not drawn)
result: 646

query: So what's the measured RP-LC retention time for this one? `O=C(NCc1ccco1)N1CCN(Cc2nc3cccnc3n2-c2cccc(F)c2)CC1`
result: 636

query: So what's the measured RP-LC retention time for this one? CCOc1cc(CNC(=O)C2CCCN(c3nc4ccccc4n(CC)c3=O)C2)ccc1OC (stereo not drawn)
result: 936

query: So what's the measured RP-LC retention time for this one? `Cc1nc(CCNC(=O)C2CCN(C(=O)c3ccc(F)cc3)CC2)cs1`
result: 826

query: So what's the measured RP-LC retention time for this one? `CC1=C(c2ccc(C)cc2)S(=O)(=O)N=C1N1CCCN(C(=O)C2CCC2)CC1`
result: 818

query: So what's the measured RP-LC retention time for this one? `O=C(Cn1nc(C(=O)N2CCCC2)c2ccccc21)N1CCN(c2cccc(Cl)c2)CC1`
result: 942

query: So what's the measured RP-LC retention time for this one? COc1ccc2[nH]cc(CCN3CC(C(=O)Nc4nnc(C(C)(C)C)s4)CC3=O)c2c1 (stereo not drawn)
result: 744

query: So what's the measured RP-LC retention time for this one? `COc1cc(Cl)ccc1C(=O)N1C[C@@H]2C[C@H]1C[C@@H]2NC(=O)c1ccccc1`
result: 939

query: So what's the measured RP-LC retention time for this one? `O=C(NC1CCCC1)c1nnn(-c2ccc(F)cc2)c1-c1ccncc1`
result: 788

query: So what's the measured RP-LC retention time for this one? `CCn1nccc1-c1cccc(-c2noc(CNC(=O)Cc3ccc(Cl)cc3)n2)c1`
result: 922

###

# assayRemarks: gradient 5% acetonitrile 3 min, to 50% in 2 min, to 85% in 15 min, held 3 min, 100 µL/min
# experimentalSetup: column: Zorbax Extend-C18 2.1 x 50 mm; eluents: water / acetonitrile, 0.1% formic acid
measuredMetric: RP-LC retention time (s)
Dear colleague, please return just the value in s, with no unit written.

query: So what's the measured RP-LC retention time for this one? `COc1ccccc1C(=O)Nc1cccn2nc(C3CCC3)nc12`
result: 1140

query: So what's the measured RP-LC retention time for this one? `O=S(=O)(c1ccc2c(c1)CCCC2)N1CCCn2nc(-c3ccncc3)cc2C1`
result: 706

query: So what's the measured RP-LC retention time for this one? `CCCn1cc(C(=O)NCC(C)C)c2nn(-c3ccccc3)c(=O)c-2c1`
result: 878

query: So what's the measured RP-LC retention time for this one? `CCOC(=O)c1ccccc1NC(=O)Cn1c(=O)n(-c2cccc(C)c2)c(=O)c2c1cc(C)n2C`
result: 966

query: So what's the measured RP-LC retention time for this one? CCOC(=O)C1=C(CN2CCC(C)CC2)NC(=O)NC1c1cccs1 (configuration not stated)
result: 611

query: So what's the measured RP-LC retention time for this one? `CC(C)c1ccc(NC(=O)Cn2ccc3c(=O)n(C)c(=O)n(C)c32)cc1`
result: 772

query: So what's the measured RP-LC retention time for this one? `Cc1cc(=O)n(CCc2ccccc2)c(N2CCCC2)n1`
result: 742

###

# assayRemarks: gradient 5% acetonitrile 3 min, to 50% in 2 min, to 85% in 15 min, held 3 min, 100 µL/min
# experimentalSetup: column: Zorbax Extend-C18 2.1 x 50 mm; eluents: water / acetonitrile, 0.1% formic acid
measuredMetric: RP-LC retention time (s)
Dear colleague, please return just the value in s, with no unit written.

query: So what's the measured RP-LC retention time for this one? `COc1ccc(-c2noc(CS(=O)(=O)c3ccc(Cl)cc3)n2)cc1OC`
result: 1030

query: So what's the measured RP-LC retention time for this one? Cc1ccccc1-c1noc(-c2nnn3c2COC(c2ccc(F)cc2)C3)n1 (stereo not drawn)
result: 1000

query: So what's the measured RP-LC retention time for this one? `CCN1C(=O)COc2cc(-c3noc(C(=O)N4CCN(c5ccccc5)CC4)n3)ccc21`
result: 1030

###

I'd appreciate it if you could supply RP-LC retention time values for the items below.
# assayRemarks: gradient 5% acetonitrile 3 min, to 50% in 2 min, to 85% in 15 min, held 3 min, 100 µL/min
# experimentalSetup: column: Zorbax Extend-C18 2.1 x 50 mm; eluents: water / acetonitrile, 0.1% formic acid
Dear colleague, please return just the value in s, with no unit written.

query: So what's the measured RP-LC retention time for this one? `O=C(NCc1ccccn1)c1scc(-c2ccc(F)cc2)c1-n1cccc1`
result: 821

query: So what's the measured RP-LC retention time for this one? `COC(=O)c1nc(NC(=O)Cn2nc3c(cc2=O)CCCCC3)sc1C`
result: 778

query: So what's the measured RP-LC retention time for this one? `Cc1ccc(CNS(=O)(=O)c2c(-c3nnc(C)o3)c(C)n(C)c2C)o1`
result: 780

###

I'd appreciate it if you could supply RP-LC retention time values for the items below.
# assayRemarks: gradient 5% acetonitrile 3 min, to 50% in 2 min, to 85% in 15 min, held 3 min, 100 µL/min
# experimentalSetup: column: Zorbax Extend-C18 2.1 x 50 mm; eluents: water / acetonitrile, 0.1% formic acid
Dear colleague, please return just the value in s, with no unit written.

query: So what's the measured RP-LC retention time for this one? `O=C(c1cc(-c2ccccc2)n[nH]1)N1CCN(c2cc(-c3ccccc3)ncn2)CC1`
result: 609

query: So what's the measured RP-LC retention time for this one? `Cn1cc(C2=C(c3ccc(Cl)cc3Cl)C(=O)NC2=O)c2ccccc21`
result: 1110

query: So what's the measured RP-LC retention time for this one? `Cn1cnc([N+](=O)[O-])c1Sc1ncn[nH]1`
result: 626

###

# assayRemarks: gradient 5% acetonitrile 3 min, to 50% in 2 min, to 85% in 15 min, held 3 min, 100 µL/min
# experimentalSetup: column: Zorbax Extend-C18 2.1 x 50 mm; eluents: water / acetonitrile, 0.1% formic acid
measuredMetric: RP-LC retention time (s)
Dear colleague, please return just the value in s, with no unit written.

query: So what's the measured RP-LC retention time for this one? Cc1ccccc1CNC(=O)C1CCCN(C(=O)c2[nH]c(C)c(C(=O)OC(C)C)c2C)C1 (stereo not drawn)
result: 896

query: So what's the measured RP-LC retention time for this one? `Cc1noc(-c2ccc(OC3CN(C(=O)c4sccc4C)C3)cc2)n1`
result: 900

query: So what's the measured RP-LC retention time for this one? `Cc1cc(-c2nnc(C3CCC3)o2)c(C)n1CC(=O)Nc1cccc(F)c1`
result: 900
